# ASSAY SYSTEM: EGFR del19 (Homo sapiens (Human), UniProt P00533, DEL746-750)
# Sequence (P00533 other isoform, or with tags, fused parts or gaps del 1-668/del 746-750 limits assumed): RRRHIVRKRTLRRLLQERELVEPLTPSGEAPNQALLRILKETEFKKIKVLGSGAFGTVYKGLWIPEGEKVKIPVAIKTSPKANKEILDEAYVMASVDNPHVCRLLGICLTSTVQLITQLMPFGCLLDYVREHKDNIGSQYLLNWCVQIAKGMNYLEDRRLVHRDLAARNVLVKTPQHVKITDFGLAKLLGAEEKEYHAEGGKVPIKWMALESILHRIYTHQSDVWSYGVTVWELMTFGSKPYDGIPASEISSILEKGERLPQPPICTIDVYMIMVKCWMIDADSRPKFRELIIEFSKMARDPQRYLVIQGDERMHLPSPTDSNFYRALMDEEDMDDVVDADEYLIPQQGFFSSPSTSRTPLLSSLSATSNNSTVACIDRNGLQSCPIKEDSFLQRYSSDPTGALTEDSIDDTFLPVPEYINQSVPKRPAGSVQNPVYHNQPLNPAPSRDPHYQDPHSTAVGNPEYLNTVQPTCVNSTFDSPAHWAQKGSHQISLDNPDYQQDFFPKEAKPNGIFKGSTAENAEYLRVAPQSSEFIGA
# ASSAY NAME: HTRF enzyme assay, EGFR del19
# CONDITION PARAMETERS: recombinant enzyme
# Experimental: The measurement of an activity on wild-type and EGFR mutation enzyme of the compound of the present invention was experimented by utilizing the HTRF system sold by Cisbio, as follow. The composition of the assay buffer used in the activity measurement was 50 mM Tris-HCl pH 7.5, 100 mM NaCl, 7.5 mM MgCl2, 3 mM KCl, 0.01% Tween 20, 0.1% BSA, 1 mM DTT. […]
TEST READOUT: IC50 (nM)

A. COc1cc(N2CCOCC2)ccc1Nc1ncc(Cl)c(Nc2ccccc2NS(C)(=O)=O)n1 [Example 32]
B. COc1cc(N2CCC(N3CCCC3)CC2)ccc1Nc1ncc(Cl)c(Nc2ccccc2NS(C)(=O)=O)n1 [Example 35]
C. COc1cc(C2CCN(C3CCNCC3)CC2)ccc1Nc1ncc(Cl)c(Nc2ccccc2NS(C)(=O)=O)n1 [Example 16]
**Q:** Thanks in advance: please rank these 3 entries by IC50, highest to lowest. In plain terms: list the labels in the order you were asked to.
**A:** C, A, B
(C: 44 nM, A: 4 nM, B: 1.1 nM)

P. COc1cc(C2CCN(C)CC2)ccc1Nc1ncc(Cl)c(Nc2ccccc2NS(C)(=O)=O)n1 [Example 12]
Q. COc1cc(N2CCN(C3CCNCC3)CC2)ccc1Nc1ncc(Cl)c(Nc2ccccc2NS(C)(=O)=O)n1 [Example 27]
R. COc1cc(C2CCN(C3CCN(CCO)CC3)CC2)ccc1Nc1ncc(Cl)c(Nc2ccccc2NS(C)(=O)=O)n1 [Example 14]
S. COc1cc(C2CCN(C3CCN(C(C)=O)CC3)CC2)ccc1Nc1ncc(Cl)c(Nc2ccccc2NS(C)(=O)=O)n1 [Example 18]
**Q:** Arrange the 4 compounds from largest to smallest IC50. In plain terms: list the labels in the order you were asked to.
**A:** P, S, R, Q

I. COc1cc(N2CCNCC2)ccc1Nc1ncc(Cl)c(Nc2ccccc2NS(N)(=O)=O)n1 [Example 29]
II. COc1cc(N2CCNCC2)ccc1Nc1ncc(Br)c(Nc2ccccc2NS(N)(=O)=O)n1 [Example 30]
III. COc1cc(C2CCNCC2)c(C)cc1Nc1ncc(Cl)c(Nc2ccccc2NS(C)(=O)=O)n1 [Example 2]
IV. COc1cc(N2CCC(N3CCNCC3)CC2)ccc1Nc1ncc(Cl)c(Nc2ccccc2NS(C)(=O)=O)n1 [Example 21]
V. COc1cc(C2CCNCC2)ccc1Nc1ncc(Br)c(Nc2ccccc2NS(N)(=O)=O)n1 [Example 7]
**Q:** Arrange the 5 compounds from largest to smallest IC50. In plain terms: list the labels in the order you were asked to.
**A:** V, II, III, I, IV

P. COc1cc(C2CCNCC2)ccc1Nc1ncc(Cl)c(Nc2ccccc2NS(N)(=O)=O)n1 [Example 6]
Q. COc1cc(C2CCN(C3CCN(C)CC3)CC2)ccc1Nc1ncc(Cl)c(Nc2ccccc2NS(C)(=O)=O)n1 [Example 17]
R. COc1cc(N2CCC(N(C)C)CC2)ccc1Nc1ncc(Cl)c(Nc2ccccc2NS(C)(=O)=O)n1 [Example 11]
**Q:** Arrange these 3 compounds in increasing order of IC50. In plain terms: list the labels in the order you were asked to.
**A:** Q, R, P
(Q: 4 nM, R: 7.8 nM, P: 26 nM)
